Test system: Plasmodium berghei
Assay: Screen against P. berghei liver stage (PbLuc), transformed with Luciferase, at 10uM
Type: functional, HepG2
Settings: tested at 10 uM
Screen size: about 69,000 compounds; about 8,600 (12%) showed an effect of 50% or more. What follows is part of a selection rich in strong results, with near analogues and random picks from the rest.
Assign labels as follows, please: rule met for INHIBITION below 30%; rule not met for INHIBITION equal to or exceeding 30%.

| COMPOUND | TEST SYSTEM | LABEL |
| --- | --- | --- |
| CCCc1nnc(N2CCN(c3ccccc3Cl)CC2)o1 | Plasmodium berghei | rule met |
| CC(C)c1n[nH]c(C2CN(C(=O)Cn3ccccc3=O)CCO2)n1 (stereo not given) | Plasmodium berghei | rule not met |
| Cc1nccc(C(=O)N2CCOC(c3nc(C(C)C)n[nH]3)C2)n1 (stereo not given) | Plasmodium berghei | rule met |
| OC(CN1CCN(Cc2ccccc2)CC1)C1CC1 (stereo not given) | Plasmodium berghei | rule met |
| CNCC(=O)N1CCCC(c2nccnc2Oc2cccc(F)c2)C1 (stereo not given) | Plasmodium berghei | rule not met |

Exercise: Lab log: compare recorded INHIBITION with 30%; is it strictly lower for O=C(C1CC1)N1CC[C@@H]2[C@H](CC1)N(Cc1cccnc1)CCS2(=O)=O ?
Key: rule met

Exercise: I wonder whether Cn1ccc(NCc2cc3cc(F)ccc3o2)n1 has INHIBITION below 30%. Can you tell?
Key: rule met
